I'd appreciate it if you could supply pKd values for the items below.
- target_of_assay: T1, cynomolgus IL-18BP (cynomolgus monkey)
- T1 construct: also called cyno IL-18BP; cyIL-18BP
- T1 chain: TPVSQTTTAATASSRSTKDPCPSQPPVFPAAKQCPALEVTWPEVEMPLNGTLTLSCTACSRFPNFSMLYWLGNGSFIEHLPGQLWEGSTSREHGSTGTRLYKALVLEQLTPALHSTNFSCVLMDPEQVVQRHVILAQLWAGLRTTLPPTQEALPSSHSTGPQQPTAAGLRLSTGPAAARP
- assay_text: BLI, apparent KD
Schema: pKd number; meaning minus log10 of the concentration expressed in molar units.

Using the record for SA301a HC-Y100Q (antibody, V domains shown) VH: QVQLQESGPGLVKPSQTLSLTCTVSGYSITSDYNSHWIRQPPGKGLEWIGYIHYSGSTNYNPSLKSRVTISRDTSKNQFSLKLSSVTAADTAVYYCARNYGSIQVNYFDYWGQGTLVTVSS VL: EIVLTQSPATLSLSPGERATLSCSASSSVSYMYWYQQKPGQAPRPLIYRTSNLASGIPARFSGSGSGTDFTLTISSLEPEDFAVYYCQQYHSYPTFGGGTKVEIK , state its measured pKd. 8.45

Output measured pKd for this item: SA301a HC-I99P (antibody, name in Kabat numbering, V domains shown, IgG1 kappa) VH: QVQLQESGPGLVKPSQTLSLTCTVSGYSITSDYNSHWIRQPPGKGLEWIGYIHYSGSTNYNPSLKSRVTISRDTSKNQFSLKLSSVTAADTAVYYCARNYGSPYVNYFDYWGQGTLVTVSS VL: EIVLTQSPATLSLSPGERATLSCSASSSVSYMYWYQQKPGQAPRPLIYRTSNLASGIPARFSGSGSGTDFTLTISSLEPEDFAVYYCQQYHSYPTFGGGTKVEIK 9.29

For SA301a HC-Y100L (antibody, V domains shown) VH: QVQLQESGPGLVKPSQTLSLTCTVSGYSITSDYNSHWIRQPPGKGLEWIGYIHYSGSTNYNPSLKSRVTISRDTSKNQFSLKLSSVTAADTAVYYCARNYGSILVNYFDYWGQGTLVTVSS VL: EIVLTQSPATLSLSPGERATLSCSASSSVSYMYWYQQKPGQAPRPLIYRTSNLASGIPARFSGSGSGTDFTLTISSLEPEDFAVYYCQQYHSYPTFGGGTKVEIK , write its pKd. 8.85
